biological target: T1, human complement factor D purified from serum (human, UniProt P00746 26-253); assay: SPR MX96
T1 construct: serum-purified (CompTech); also called hCFD-Comptech; CFD
T1 sequence (P00746 26-253): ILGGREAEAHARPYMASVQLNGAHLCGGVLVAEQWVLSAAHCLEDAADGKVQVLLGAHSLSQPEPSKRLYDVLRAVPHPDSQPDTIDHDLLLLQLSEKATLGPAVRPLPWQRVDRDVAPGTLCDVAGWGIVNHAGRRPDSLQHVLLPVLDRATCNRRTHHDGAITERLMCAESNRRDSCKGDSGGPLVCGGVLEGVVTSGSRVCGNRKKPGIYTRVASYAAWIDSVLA
Parameter Kd: see the listing below.
Quick reminder: number only, in nM, skip the unit.

Guide cases for Kd, answers given:
KCD224 (antibody, V domains shown, chimeric) VH: QVQLKESGPGLVAPSQSLSITCTVSGFSLTSYGVDWIRQSPGKGLEWLGVIWGVGSTNYNSALKSRLSISKDNSKSQVFLKMNSLQTDDTAMYYCARSYDGSYWYFDVWGTGTTVTVSS VL: DIQMTQTTSSLSASLGDRVTISCRASQVISNYLNWYQQKPDGTVKLLIYYTSRLHSGVPSRFSGSGSGTDYSLTISNLEPEDIATYYCQQYSKLPYTFGSGTKLEIK    1.2
KCD013 (antibody, V domains shown) VH: EVQLQQSGAELVKPGASVKLSCTASGFKIKDTYMHWVKERPDQGLEWIGRIDPANGNTKYDPKFQGKATITADTSSNTAYLQLSSLTSEDTAVYYCANAMDYWGQGTSVTVSS VL: QIILTQSPAIMSASPGEKVTMTCSASSSVSNMYWYQQKPGSSPRLLIYDTSNLASGVPVRFSGSGSGASYSLTISRMEAEDAATYYCQQWSSYPWTFGGGTKLEIK    7.3

Now turn to the next binder.
Give the measured Kd of KCD114 (antibody, V domains shown) VH: EVQLQQSGPELVKPGASVKISCKASGYSFTAYYMNWVKQSPEKSLEWIGDINPSTGGTTYNQNFKAKATLTVDKSSSTAYMHLKSLTSEDSAVYYCATTYYSGNSYVGFAYWGQGTLVTVSA VL: DIVMTQSHKFMSTSVGDRVSITCKASQDVSTAVAWYQQKPGQSPKLLIFWASTRHTGVPDRFTGSGSGTDYTLTISSVQAEDLALYYCQQHYSTPWTFGGGTKLEIK .
8.1
